- TARGET_DESC: GST-FABP4
- Sequence (P15090 whole entry): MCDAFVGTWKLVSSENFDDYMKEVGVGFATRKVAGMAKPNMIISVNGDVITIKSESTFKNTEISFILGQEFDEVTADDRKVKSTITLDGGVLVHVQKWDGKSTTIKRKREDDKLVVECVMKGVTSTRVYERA
- TEST_SUMMARY: Evaluation of FABP ligand affinity using ANS (GST-FABP4)
- STATED_CONDITIONS: ANS fluorescence displacement; mean±SE of three measurements; read-out: Kd value of FABP for each ligand, GST-FABP4
pKd: −log10 of the molar value.
I would appreciate it if you labelled entries Fulfilled when pKd is 6 or higher, otherwise Not fulfilled.

COMPOUND	LABEL_VALUE
CC(C)c1ccc(-n2nc(-c3ccccc3OCCCC(=O)O)cc2-c2ccccc2C(F)(F)F)cc1 [Example Compound 5]	Fulfilled
CC(C)c1ccc(-n2nc(-c3cc(F)ccc3OCCCC(=O)O)cc2-c2ccccc2C(F)(F)F)cc1 [Example Compound 4]	Not fulfilled
O=C(O)CCCOc1ccccc1-c1cc(-c2ccccc2C(F)(F)F)n(-c2ccccc2)n1 [Example Compound 2]	Fulfilled
O=C(O)CCCOc1ccccc1-c1nc(-c2ccccc2C(F)(F)F)n(-c2ccccc2)n1 [Example Compound 3]	Fulfilled
O=C(O)CCCOc1ccccc1-c1cc(-c2ccccc2Cl)n(-c2ccccc2)n1 [LIGAND 1, reference compound]	Fulfilled

Data provenance: patent US20260085047A1
